meta.source: patent US12319655B2

# experimental_system: C-Raf kinase (SEQ. ID NO: 3) (Homo sapiens (Human), UniProt P04049, Y340D/Y341D)
# Sequence (P04049 307-648 Y340D/Y341D): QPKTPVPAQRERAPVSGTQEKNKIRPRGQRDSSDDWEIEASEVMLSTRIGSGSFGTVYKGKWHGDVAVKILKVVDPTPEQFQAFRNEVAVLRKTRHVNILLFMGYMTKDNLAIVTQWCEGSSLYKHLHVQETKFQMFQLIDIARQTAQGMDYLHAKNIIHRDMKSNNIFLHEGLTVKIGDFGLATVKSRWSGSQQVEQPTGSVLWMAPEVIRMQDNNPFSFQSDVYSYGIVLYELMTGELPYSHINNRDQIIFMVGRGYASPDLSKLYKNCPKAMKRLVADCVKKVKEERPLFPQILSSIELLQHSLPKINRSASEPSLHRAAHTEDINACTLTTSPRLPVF
# run_description: Biochemical Assay for C-Raf (1)
# conditions_used: Table J, assay version (1); read-out: CRAF (1) IC50
# Method: Biochemical Assay for C-Raf (1) Activity of C-Raf kinase (SEQ. ID NO: 3) was determined spectroscopically using a coupled pyruvate kinase/lactate dehydrogenase assay that continuously monitors the ATP hydrolysis-dependent oxidation of NADH (e.g., Schindler et al., Science, 2000, 289, 1938-1942). […] Inhibition of C-Raf was measured by adding serial diluted test compound (final assay concentration of 1% DMSO). […] The reaction rate was calculated using the 4 to 5 h time frame. […]
Overview of reported IC50 across a group of molecules:
outcome_measure: IC50

>>> result("Cc1ccc(NC(=O)c2ccnc(C(F)(F)F)c2)cc1-c1ccnc(-c2ccnc(N)c2)n1")
"≤ 100 nM"
>>> result("Cc1ccc(NC(=O)c2ccnc(C(F)(F)F)c2)cc1-c1ccnc(-c2ccncc2)c1")
"≤ 100 nM"
>>> result("COCC(=O)Nc1cc(-c2cccc(-c3cc(NC(=O)c4ccnc(C(F)(F)F)c4)ccc3C)c2)ccn1")
"≤ 100 nM"
>>> result("Cc1cc(F)c(NC(=O)c2cnnc(C3CC3)c2)cc1-c1ccnc(-c2ccnc(NC(=O)C3CC3)c2)n1")
"≤ 100 nM"
>>> result("Cc1ccc(NC(=O)c2cc(C(F)(F)F)ccn2)cc1-c1cncc(-c2ccnc(NC(=O)C3CC3)c2)n1")
"≤ 100 nM"
>>> result("Cc1ncc(NC(=O)c2cnnc(C3CC3)c2)cc1-c1nccc(-c2ccnc(NC(=O)C3CC3)c2)n1")
"≤ 100 nM"
>>> result("COC(C)(C)c1cc(C(=O)Nc2cnc(C)c(-c3cccc(-c4cc(NC(=O)C5CC5)ncn4)c3)c2)ccn1")
"≤ 100 nM"
>>> result("Cc1ncc(NC(=O)c2ccnc(C(C)C)c2)cc1-c1cccc(-c2ccnc(NC(=O)C3CC3)c2)n1")
"≤ 100 nM"
>>> result("CNC(=O)c1cc(-c2cncc(-c3cc(NC(=O)c4cccc(C(C)(C)C#N)c4)ccc3C)n2)ccn1")
"≤ 100 nM"
>>> result("Cc1ccc(NC(=O)c2ccnc(C(C)(C)C#N)c2)cc1-c1cccc(-c2cc(NC(=O)C3CC3)ncn2)n1")
"≤ 100 nM"
>>> result("Cc1ccc(NC(=O)c2ccnc(C(F)(F)F)c2)cc1-c1ccnc(-c2ccnc(NC=O)c2)c1")
"≤ 100 nM"
>>> result("CNC(=O)c1cc(-c2cc(-c3cc(NC(=O)c4ccnc(C(C)(C)C#N)c4)ccc3C)cc(C3CC3)n2)ccn1")
"100 to 500 nM"
>>> result("CC(=O)Nc1cc(-c2cc(-c3cc(NC(=O)c4ccnc(C(F)(F)F)c4)cnc3C)ccn2)ccn1")
"≤ 100 nM"
>>> result("Cc1ccc(NC(=O)c2ccnc(C(C)(C)C#N)c2)cc1-c1ccnc(-c2ccnc(NC(=O)C3CC3)c2)n1")
"≤ 100 nM"
>>> result("Cc1ncc(NC(=O)c2ccnc(C(C)(C)C#N)c2)cc1-c1cccc(-c2ncnc3[nH]ncc23)c1")
"≤ 100 nM"
>>> result("CNC(=O)c1cc(-c2cc(-c3cc(NC(=O)c4ccnc(C(C)(C)OC)c4)ccc3C)ccn2)ccn1")
"≤ 100 nM"
>>> result("CNC(=O)c1cc(-c2cccc(-c3cc(NC(=O)c4ccnc(C(F)(F)F)c4)cnc3C)c2)ccn1")
"≤ 100 nM"
>>> result("CCOc1cc(-c2cc(NC(=O)c3ccnc(C(F)(F)F)c3)ccc2C)cc(-c2ccnc(NC(=O)C3CC3)c2)n1")
"≤ 100 nM"
>>> result("Cc1ccc(NC(=O)C2CCOC2)cc1-c1cccc(-c2cc(NC(=O)C3CC3)ncn2)c1 (centres unmarked)")
"100 to 500 nM"
>>> result("CNC(=O)c1cc(-c2cc(-c3cc(NC(=O)c4ccnc(C(C)(C)C#N)c4)cnc3C)ccn2)ccn1")
"100 to 500 nM"
>>> result("CNC(=O)c1cc(-c2nc(-c3cc(NC(=O)c4ccnc(C(C)(C)C#N)c4)ccc3C)cc(C3CC3)n2)ccn1")
"100 to 500 nM"
>>> result("Cc1ccc(NC(=O)c2ccnc(C3CC3)c2)cc1-c1cccc(-c2cc(NC(=O)C3CC3)ncn2)c1")
"≤ 100 nM"
>>> result("COCC(=O)Nc1cc(-c2cncc(-c3cc(NC(=O)c4ccnc(C(C)(C)C#N)c4)ccc3C)n2)ccn1")
"≤ 100 nM"
>>> result("Cc1ccc(NC(=O)c2ccnc(C(F)(F)F)c2)cc1-c1cncc(-c2ccnc(NC(=O)CN(C)C)c2)n1")
"≤ 100 nM"
>>> result("CNC(=O)c1cc(-c2cccc(-c3cc(NC(=O)c4ccnc(C(C)(C)C#N)c4)ccc3C)c2)ncn1")
"≤ 100 nM"
>>> result("CC(=O)Nc1cc(-c2cc(-c3cc(NC(=O)c4ccnc(C(F)(F)F)c4)ccc3C)nc(N(C)C)n2)ccn1")
"≤ 100 nM"
>>> result("Cc1ccc(NC(=O)c2cnnc(C3CC3)c2)cc1-c1cccc(-c2cc(NC(=O)C3CC3)ncn2)c1")
"≤ 100 nM"
>>> result("Cc1ccc(NC(=O)c2ccnc(C(C)(C)C#N)c2)cc1-c1ccnc(-c2ccnc(NC(=O)C3(C#N)CC3)c2)n1")
"≤ 100 nM"
>>> result("Cc1ncc(NC(=O)CN2CCOCC2)cc1-c1cccc(-c2cc(NC(=O)C3CC3)ncn2)c1")
"500 to 1000 nM"
